- test-details: DNA intercalators displacing acridine orange, dose response, artefact control for KSHV LANA DNA-binding inhibitor project, biochemical, fluorescence polarization, cherry-picked samples, set 2 (AID 504727)
- condition: Acridine orange-DNA displacement; series mostly up to 35 µM
The source made the active and inactive calls.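 How the source made its calls: active means fitted half-maximal concentration AC50 at or below ten times the highest valid tested dose, with signal falling as DNA is displaced (actives reach about 34 µM in these data); inconclusive means flat fit at moderate signal loss, or poor fit quality; inactive means the rest, including signal rising instead of falling.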
Classes used: active, inactive

compound: Cc1cc(=O)c2c([nH]1)c(C)cc1[nH]c(C)c(C)c12
group-label: inactive

compound: O=C(CN1C(=O)/C(=C/c2ccco2)SC1=S)Nc1ccc(O)c(C(=O)O)c1
group-label: inactive

compound: COc1ccc2c3c(cccc13)C(=O)CC2
group-label: active

compound: CC1CCCN(C(=O)C(=O)c2cn(CC(=O)N3CCCCCC3)c3ccccc23)C1 (stereo not drawn)
group-label: inactive

compound: Brc1ccc(-c2noc(COc3ccc4c(c3)CCC4)n2)o1
group-label: inactive

compound: COC(=O)C1=COC(C)C2CN3CCc4c([nH]c5ccccc45)C3CC12 (stereo not drawn)
group-label: inactive

compound: CC(=O)O[C@@H]1[C@@H](OC(C)=O)[C@H](n2ccc3cc([N+](=O)[O-])ccc32)OC[C@@H]1OC(C)=O
group-label: inactive

compound: CC1=C(O)C(=O)C(C2=C(O)C(=O)C(C)=C(O)C2=O)=C(O)C1=O
group-label: inactive

compound: CS(=O)(=O)c1cccc(C(=O)Oc2ccccc2)c1
group-label: inactive

compound: CCOC(=O)CCCn1c(C)nc(=O)c(-c2ccccc2)c1C
group-label: inactive

compound: O=C(COC(=O)c1ccc([N+](=O)[O-])o1)NCCCc1ccccc1
group-label: inactive

compound: Cc1ccccc1NC(=S)NC(C)CCc1ccccc1 (stereo not drawn)
group-label: inactive

compound: Cc1nn(C)c(C)c1N1C(=O)c2cccc3c(N)ccc(c23)C1=O
group-label: active

compound: CC(C(=O)Nc1ccccc1)N1C(=O)c2ccccc2C1=O (stereo not drawn)
group-label: inactive

compound: O=C1c2ccccc2-c2onc3ccc(NCc4ccco4)c1c23
group-label: active

compound: CCOC(=O)C1Nc2ccc(C(=O)O)cc2C2C=CCC12 (stereo not drawn)
group-label: inactive

compound: CC(=O)OCCCn1c(C)[n+](C)c2cc(Cl)c(Cl)cc21
group-label: inactive

compound: NC(=S)NN=Cc1ccc(-c2ccc(S(=O)(=O)Nc3ncccn3)cc2)o1
group-label: inactive

compound: CS(=O)(=O)Nc1nc2n(n1)C(c1ccccc1)C=C(c1ccc(Br)cc1)N2 (stereo not drawn)
group-label: active

compound: CC(=O)Oc1ccc2c(c1)Oc1cc(OC(C)=O)ccc1C21OC(=O)c2ccccc21
group-label: active

compound: CCN(CC)c1ccc2cc(S(=O)(=O)c3ccc(Cl)cc3)c(=O)oc2c1
group-label: active

compound: CCOC(=O)[C@H]1[C@H]2COc3cc(OC)ccc3[C@@H]2N2C(=O)CN(Cc3ccc(OC)cc3)C(=O)[C@@]12C
group-label: inactive

compound: COc1ccc(-c2nc(C(=O)O)cs2)cc1OC
group-label: inactive

compound: COc1ccc(C(C)=O)cc1CN(C)C
group-label: inactive

compound: Nc1cc(N)nc(SCC(=O)N2CCCCC2)n1
group-label: inactive

compound: C=C1c2cccc(O)c2C(O)=C2C(=O)[C@]3(O)C(O)=C(C(N)=O)C(=O)[C@@H](N(C)C)[C@@H]3[C@@H](O)[C@H]12
group-label: inactive

compound: O=c1cc2c(=O)oc3cc(O)c(O)oc3c2c(O)c1O
group-label: inactive

compound: COc1cccc(NC(=S)N2CCN(C(c3ccccc3)c3ccccc3)CC2)c1
group-label: inactive

compound: COc1cc(O)c(C(C)=O)c(CC(=O)O)c1
group-label: inactive

compound: Cc1cc(C)n(CCC(=O)N/N=C/c2ccc(O)cc2O)n1
group-label: inactive

compound: O=C(c1cccc(S(=O)(=O)NCc2ccccc2)c1)N1CCN(c2ccccc2Cl)CC1
group-label: inactive

compound: CC[C@H](C)[C@H](NC(N)=O)C(=O)Nc1ccc(NC(C)=O)cc1
group-label: inactive

compound: O=C(/C=C\c1ccccc1)Oc1cccc2cccnc12
group-label: inactive

compound: CCC1(c2ccccc2)NC(=O)N(CC(=O)Nc2ccc(OC)nc2)C1=O (stereo not drawn)
group-label: active

compound: C=CC1=C(C(=O)O)N2C(=O)[C@@H](NC(=O)/C(=N/OCC(=O)O)c3csc(N)n3)[C@H]2SC1
group-label: inactive

compound: COc1ccc(NC(=O)CN(C)CC(=O)Nc2ccc(N3CCOCC3)cc2)c([N+](=O)[O-])c1
group-label: inactive

compound: CCOC(=O)C1(Cc2cccc(F)c2)CCN(Cc2c(C)nn(CC)c2C)CC1
group-label: inactive

compound: COc1cc(NC(=O)c2ccc(CNc3c(N4CCCC4)c(=O)c3=O)cc2)cc(OC)c1OC
group-label: inactive

compound: COc1cc(OC)cc(-c2c(-c3ccsc3)c3cc(Br)ccc3n2C)c1
group-label: inactive

compound: N#CC1=C(N)Oc2ccc3ccc(O)cc3c2C1c1ccsc1 (stereo not drawn)
group-label: inactive

compound: CCCCn1c(N)c(N(CCOC)C(=O)c2cc(C)oc2C)c(=O)[nH]c1=O
group-label: inactive

compound: CC(C)=C1C2C=CC1C(C(=O)Nc1cc(C)ccc1C)C2C(=O)O (stereo not drawn)
group-label: inactive

compound: CC(=O)Nc1ccc(S(=O)(=O)Nc2nc3ccccc3nc2Nc2ccc(C(=O)O)c(O)c2)cc1
group-label: inactive
